# experimentalSetup: in 1,4-dioxane, 297.05 K

- chemicalStructure: "O=C(O)c1cc2ccccc2[nH]1"
  solubility (mole fraction): 0.00427

###

# experimentalSetup: in methanol, 317.75 K

- chemicalStructure: "O=C(O)c1cc2ccccc2[nH]1"
  solubility (mole fraction): 0.135

###

# experimentalSetup: in ethanol, 329.85 K

- chemicalStructure: "O=C(O)c1cc2ccccc2[nH]1"
  solubility (mole fraction): 0.12

###

# experimentalSetup: in isopropanol, 333.35 K
attributeMeasured: solubility (mole fraction)

- chemicalStructure: "O=C(O)c1cc2ccccc2[nH]1"
  valueReported: 0.149

###

# experimentalSetup: in ethyl acetate, 333.65 K

- chemicalStructure: "O=C(O)c1cc2ccccc2[nH]1"
  solubility (mole fraction): 0.14

###

# experimentalSetup: in ethyl acetate, 299.55 K

- chemicalStructure: "O=C(O)c1cc2ccccc2[nH]1"
  solubility (mole fraction): 0.0865

###

# experimentalSetup: in 1,4-dioxane, 331.95 K

- chemicalStructure: "O=C(O)c1cc2ccccc2[nH]1"
  solubility (mole fraction): 0.00791

###

# experimentalSetup: in methanol, 293.25 K

- chemicalStructure: "O=C(O)c1cc2ccccc2[nH]1"
  solubility (mole fraction): 0.0752

###

# experimentalSetup: in n-propanol, 305.75 K
attributeMeasured: solubility (mole fraction)

- chemicalStructure: "O=C(O)c1cc2ccccc2[nH]1"
  valueReported: 0.0801

###

# experimentalSetup: in isopropanol, 315.75 K

- chemicalStructure: "O=C(O)c1cc2ccccc2[nH]1"
  solubility (mole fraction): 0.108

###

# experimentalSetup: in 1,4-dioxane, 301.95 K

- chemicalStructure: "O=C(O)c1cc2ccccc2[nH]1"
  solubility (mole fraction): 0.00476

###

# experimentalSetup: in toluene, 307.05 K

- chemicalStructure: "O=C(O)c1cc2ccccc2[nH]1"
  solubility (mole fraction): 0.000898

###

# experimentalSetup: in ethyl acetate, 294.65 K

- chemicalStructure: "O=C(O)c1cc2ccccc2[nH]1"
  solubility (mole fraction): 0.0735

###

# experimentalSetup: in ethanol, 308.35 K

- chemicalStructure: "O=C(O)c1cc2ccccc2[nH]1"
  solubility (mole fraction): 0.0881

###

# experimentalSetup: in ethyl acetate, 324.35 K
attributeMeasured: solubility (mole fraction)

- chemicalStructure: "O=C(O)c1cc2ccccc2[nH]1"
  attributeMeasured: "solubility (mole fraction)"
  valueReported: 0.128

###

# experimentalSetup: in n-butanol, 298.55 K
attributeMeasured: solubility (mole fraction)

- chemicalStructure: "O=C(O)c1cc2ccccc2[nH]1"
  valueReported: 0.0687

###

# experimentalSetup: in n-butanol, 342.45 K

- chemicalStructure: "O=C(O)c1cc2ccccc2[nH]1"
  solubility (mole fraction): 0.143

###

# experimentalSetup: in ethanol, 313.25 K

- chemicalStructure: "O=C(O)c1cc2ccccc2[nH]1"
  solubility (mole fraction): 0.0974

###

# experimentalSetup: in water, 353.15 K

- chemicalStructure: "O=C(O)c1cc2ccccc2[nH]1"
  solubility (mole fraction): 0.000962

###

# experimentalSetup: in water, 323.15 K

- chemicalStructure: "O=C(O)c1cc2ccccc2[nH]1"
  solubility (mole fraction): 0.000115

###

# experimentalSetup: in water, 308.05 K

- chemicalStructure: "O=C(O)c1cc2ccccc2[nH]1"
  solubility (mole fraction): "7.17e-05"

###

# experimentalSetup: in n-butanol, 278.15 K

- chemicalStructure: "O=C(O)c1cc2ccccc2[nH]1"
  solubility (mole fraction): 0.0478

###

# experimentalSetup: in isopropanol, 358.15 K

- chemicalStructure: "O=C(O)c1cc2ccccc2[nH]1"
  solubility (mole fraction): 0.219

###

# experimentalSetup: in n-propanol, 298.15 K

- chemicalStructure: "O=C(O)c1cc2ccccc2[nH]1"
  solubility (mole fraction): 0.068

###

# experimentalSetup: in isopropanol, 305.55 K
attributeMeasured: solubility (mole fraction)

- chemicalStructure: "O=C(O)c1cc2ccccc2[nH]1"
  valueReported: 0.0855

###

# experimentalSetup: in toluene, 297.95 K
attributeMeasured: solubility (mole fraction)

- chemicalStructure: "O=C(O)c1cc2ccccc2[nH]1"
  valueReported: 0.000722

###

# experimentalSetup: in n-propanol, 291.35 K

- chemicalStructure: "O=C(O)c1cc2ccccc2[nH]1"
  solubility (mole fraction): 0.0588

###

# experimentalSetup: in isopropanol, 338.75 K
attributeMeasured: solubility (mole fraction)

- chemicalStructure: "O=C(O)c1cc2ccccc2[nH]1"
  attributeMeasured: "solubility (mole fraction)"
  valueReported: 0.161

###

# experimentalSetup: in ethanol, 353.15 K
attributeMeasured: solubility (mole fraction)

- chemicalStructure: "O=C(O)c1cc2ccccc2[nH]1"
  attributeMeasured: "solubility (mole fraction)"
  valueReported: 0.165

###

# experimentalSetup: in toluene, 337.85 K
attributeMeasured: solubility (mole fraction)

- chemicalStructure: "O=C(O)c1cc2ccccc2[nH]1"
  attributeMeasured: "solubility (mole fraction)"
  valueReported: 0.00295

###

# experimentalSetup: in ethanol, 348.25 K
attributeMeasured: solubility (mole fraction)

- chemicalStructure: "O=C(O)c1cc2ccccc2[nH]1"
  attributeMeasured: "solubility (mole fraction)"
  valueReported: 0.154

###

# experimentalSetup: in isopropanol, 348.15 K
attributeMeasured: solubility (mole fraction)

- chemicalStructure: "O=C(O)c1cc2ccccc2[nH]1"
  valueReported: 0.191

###

# experimentalSetup: in ethanol, 336.25 K

- chemicalStructure: "O=C(O)c1cc2ccccc2[nH]1"
  solubility (mole fraction): 0.135

###

# experimentalSetup: in n-butanol, 285.35 K

- chemicalStructure: "O=C(O)c1cc2ccccc2[nH]1"
  solubility (mole fraction): 0.0538

###

# experimentalSetup: in ethanol, 342.75 K

- chemicalStructure: "O=C(O)c1cc2ccccc2[nH]1"
  solubility (mole fraction): 0.148

###

# experimentalSetup: in dichloromethane, 295.65 K

- chemicalStructure: "O=C(O)c1cc2ccccc2[nH]1"
  solubility (mole fraction): 0.00104

###

# experimentalSetup: in n-butanol, 321.75 K

- chemicalStructure: "O=C(O)c1cc2ccccc2[nH]1"
  solubility (mole fraction): 0.101

###

# experimentalSetup: in dichloromethane, 307.25 K

- chemicalStructure: "O=C(O)c1cc2ccccc2[nH]1"
  solubility (mole fraction): 0.00168

###

# experimentalSetup: in dichloromethane, 302.65 K
attributeMeasured: solubility (mole fraction)

- chemicalStructure: "O=C(O)c1cc2ccccc2[nH]1"
  valueReported: 0.00134

###

# experimentalSetup: in ethanol, 297.95 K

- chemicalStructure: "O=C(O)c1cc2ccccc2[nH]1"
  solubility (mole fraction): 0.078

###

# experimentalSetup: in ethyl acetate, 284.05 K

- chemicalStructure: "O=C(O)c1cc2ccccc2[nH]1"
  solubility (mole fraction): 0.0433

###

# experimentalSetup: in 1,4-dioxane, 306.95 K
attributeMeasured: solubility (mole fraction)

- chemicalStructure: "O=C(O)c1cc2ccccc2[nH]1"
  attributeMeasured: "solubility (mole fraction)"
  valueReported: 0.0052

###

# experimentalSetup: in ethanol, 303.05 K

- chemicalStructure: "O=C(O)c1cc2ccccc2[nH]1"
  solubility (mole fraction): 0.0816

###

# experimentalSetup: in ethanol, 283.15 K

- chemicalStructure: "O=C(O)c1cc2ccccc2[nH]1"
  solubility (mole fraction): 0.062

###

# experimentalSetup: in n-propanol, 317.75 K

- chemicalStructure: "O=C(O)c1cc2ccccc2[nH]1"
  solubility (mole fraction): 0.0993

###

# experimentalSetup: in ethyl acetate, 309.35 K
attributeMeasured: solubility (mole fraction)

- chemicalStructure: "O=C(O)c1cc2ccccc2[nH]1"
  attributeMeasured: "solubility (mole fraction)"
  valueReported: 0.108

###

# experimentalSetup: in ethanol, 287.95 K
attributeMeasured: solubility (mole fraction)

- chemicalStructure: "O=C(O)c1cc2ccccc2[nH]1"
  valueReported: 0.0666

###

# experimentalSetup: in ethanol, 318.65 K

- chemicalStructure: "O=C(O)c1cc2ccccc2[nH]1"
  solubility (mole fraction): 0.102

###

# experimentalSetup: in methanol, 298.15 K

- chemicalStructure: "O=C(O)c1cc2ccccc2[nH]1"
  solubility (mole fraction): 0.0856

###

# experimentalSetup: in methanol, 312.95 K
attributeMeasured: solubility (mole fraction)

- chemicalStructure: "O=C(O)c1cc2ccccc2[nH]1"
  valueReported: 0.118

###

# experimentalSetup: in toluene, 325.15 K
attributeMeasured: solubility (mole fraction)

- chemicalStructure: "O=C(O)c1cc2ccccc2[nH]1"
  valueReported: 0.00155

###

# experimentalSetup: in n-propanol, 344.85 K

- chemicalStructure: "O=C(O)c1cc2ccccc2[nH]1"
  solubility (mole fraction): 0.151

###

# experimentalSetup: in n-propanol, 285.45 K

- chemicalStructure: "O=C(O)c1cc2ccccc2[nH]1"
  solubility (mole fraction): 0.0521
